tested system: GPR3 (Homo sapiens)
Construct: expressed in transfected cells; host or cells: CHO cells
Sequence (P46089 whole entry, species assumed): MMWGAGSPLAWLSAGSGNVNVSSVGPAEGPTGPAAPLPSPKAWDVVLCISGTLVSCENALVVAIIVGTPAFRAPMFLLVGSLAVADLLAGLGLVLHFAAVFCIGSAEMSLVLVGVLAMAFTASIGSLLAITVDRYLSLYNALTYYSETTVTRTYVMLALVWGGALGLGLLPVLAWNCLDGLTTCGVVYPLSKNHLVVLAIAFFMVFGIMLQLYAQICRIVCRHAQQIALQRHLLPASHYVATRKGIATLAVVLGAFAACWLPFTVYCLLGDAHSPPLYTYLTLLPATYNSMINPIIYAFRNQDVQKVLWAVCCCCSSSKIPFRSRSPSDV
protocol details: GPR3 antagonist functional cAMP assay (LANCE Ultra cAMP TR-FRET, CHO cells stably expressing GPR3)
Type: cell-based
recorded conditions: procedure of Example 24
Description: Example 56. GPR6 and GPR3 Antagonist Functional cAMP Assay CHO cells stably expressing GPR6 or GPR3 receptors were dissociated from cell culture flasks and incubated for 2 h at 37° C. in a 10 cm dish in a humidified incubator. […] To measure cAMP levels, LANCE® Ultra cAMP assay (Perkin Elmer), a homogeneous time-resolved fluorescence resonance energy transfer (TR-FRET) immunoassay was used following manufacturer's recommendations. […] FRET values were reported as readings obtained at 665 nm. […]
pIC50: −log10 of the molar value.
In this section we review reported pIC50 values for a set of molecules.
quantity name: pIC50

>  <molecule>
CNc1cncc(-c2nc3c(nc2N2CCC(Oc4ccc(F)cc4F)CC2)CCN(C(C)=O)C3)n1

>  <data value>
6.00 to 7.00

$$$$
>  <molecule>
CC(C)(O)[C@@](C)(O)c1cc2nc(-c3cnn(C4CC4)c3)c(N3CCN(Cc4ccccc4F)CC3)nc2cn1 (single isomer, unassigned)

>  <data value>
4.52 to 6.00

$$$$
>  <molecule>
CC(C)(O)[C@@H](O)c1cc2nc(N3CCN(Cc4ccccc4F)CC3)c(-c3cnn(C4CC4)c3)nc2cn1 (single isomer, unassigned)

>  <data value>
4.52 to 6.00

$$$$
>  <molecule>
CC(=O)N1CCc2nc(N3CC[C@H](Oc4ccc(F)cc4F)[C@@H](F)C3)c(-c3cnn(C)c3)nc2C1 (single isomer, unassigned)

>  <data value>
4.52 to 6.00

$$$$
>  <molecule>
CC(=O)N1CCc2nc(N3CC[C@H](Oc4ccc(F)cc4F)[C@H](F)C3)c(-c3cnn(C)c3)nc2C1 (single isomer, unassigned)

>  <data value>
4.52 to 6.00

$$$$
>  <molecule>
CC(C)(O)[C@](C)(O)c1cc2nc(N3CCN(Cc4ccc(F)cc4F)CC3)c(-c3cnn(CF)c3)nc2cn1 (single isomer, unassigned)

>  <data value>
4.52 to 6.00

$$$$

###

tested system: GPR6 (Homo sapiens, UniProt P46095)
Construct: expressed in transfected cells; host or cells: CHO cells
Sequence (P46095 whole entry): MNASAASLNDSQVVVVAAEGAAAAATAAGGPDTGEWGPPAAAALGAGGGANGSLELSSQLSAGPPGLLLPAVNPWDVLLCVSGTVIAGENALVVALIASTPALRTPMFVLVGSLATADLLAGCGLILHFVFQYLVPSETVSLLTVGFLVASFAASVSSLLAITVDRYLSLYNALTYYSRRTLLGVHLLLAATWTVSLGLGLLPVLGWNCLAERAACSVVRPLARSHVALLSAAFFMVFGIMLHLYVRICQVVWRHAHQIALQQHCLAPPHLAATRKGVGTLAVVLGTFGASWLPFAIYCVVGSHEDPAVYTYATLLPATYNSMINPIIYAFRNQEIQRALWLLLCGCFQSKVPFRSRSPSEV
protocol details: GPR6 antagonist functional cAMP assay (LANCE Ultra cAMP TR-FRET, CHO cells stably expressing GPR6)
Assay type: cell-based
recorded conditions: CHO cells stably expressing GPR6, cAMP assay (Example 24)
quantity name: IC50

>  <compound>
Cn1cc(-c2nc3cnc(OC4COC4)cc3nc2N2CCC(Oc3ccc(F)cc3F)CC2)cn1

>  <tested system>
GPR6 (Homo sapiens, UniProt P46095)

>  <data value>
100 to 1000 nM

$$$$
>  <compound>
COc1ccnc(-c2nc3c(nc2N2CCC(Oc4ccc(F)cc4F)CC2)CCN(C(C)=O)C3)n1

>  <tested system>
GPR6 (Homo sapiens, UniProt P46095)

>  <data value>
1000 to 30000 nM

$$$$
>  <compound>
CC(=O)N1Cc2nc(-c3cnn(C)c3)c(N3CCC(Oc4ccc(F)cc4F)CC3)nc2CC1C (single isomer, unassigned) [Compound 445]

>  <tested system>
GPR6 (Homo sapiens, UniProt P46095)

>  <data value>
100 to 1000 nM

$$$$
>  <compound>
Cn1cc(-c2nc3cnc(C[C@H](O)CO)cc3nc2N2CCC(Oc3ccc(F)cc3F)CC2)cn1 (single isomer, unassigned)

>  <tested system>
GPR6 (Homo sapiens, UniProt P46095)

>  <data value>
100 to 1000 nM

$$$$
>  <compound>
CC(=O)N1Cc2nc(-c3cnn(C)c3)c(N3CCC(Oc4ccc(F)cc4F)CC3)nc2CC1C (centres unmarked) [Compound 394]

>  <tested system>
GPR6 (Homo sapiens, UniProt P46095)

>  <data value>
100 to 1000 nM

$$$$
>  <compound>
CC(=O)N1CCc2nc(N3CCC(Oc4ccc(F)cc4F)CC3)c(-c3cnn4c3CN(C(C)=O)CC4)nc2C1

>  <tested system>
GPR6 (Homo sapiens, UniProt P46095)

>  <data value>
1000 to 30000 nM

$$$$
>  <compound>
O=C(CN1CCOCC1)N1CCc2nc(N3CCC(Oc4ccc(F)cc4F)CC3)c(-c3cn[nH]c3)nc2C1

>  <tested system>
GPR6 (Homo sapiens, UniProt P46095)

>  <data value>
100 to 1000 nM

$$$$
>  <compound>
CC(=O)N1CCc2nc(N3CCC(Oc4ccc(F)cc4F)CC3)c(-c3cccc(OC4CCOC4)n3)nc2C1 (centres unmarked)

>  <tested system>
GPR6 (Homo sapiens, UniProt P46095)

>  <data value>
1000 to 30000 nM

$$$$
>  <compound>
CC(=O)N1CCc2nc(N3CCN(Cc4ccc(F)cc4F)C[C@@H]3C)c(-c3cnn(C)c3)nc2C1 (single isomer, unassigned)

>  <tested system>
GPR6 (Homo sapiens, UniProt P46095)

>  <data value>
1000 to 30000 nM

$$$$
>  <compound>
Cn1cc(-c2nc3cnc([C@H](O)C(C)(C)O)cc3nc2N2CCC(Oc3ccc(F)cc3F)CC2)cn1 (single isomer, unassigned)

>  <tested system>
GPR6 (Homo sapiens, UniProt P46095)

>  <data value>
100 to 1000 nM

$$$$
>  <compound>
Nc1cc2nc(N3CCC(Oc4ccc(F)cc4F)CC3)c(-c3cnn(C(F)F)c3)nc2cn1

>  <tested system>
GPR6 (Homo sapiens, UniProt P46095)

>  <data value>
100 to 1000 nM

$$$$
>  <compound>
CC(=O)N1CCc2nc(N3CCC(Oc4ccc(F)cc4F)CC3)c(-c3cnn(CCC#N)c3)nc2C1

>  <tested system>
GPR6 (Homo sapiens, UniProt P46095)

>  <data value>
100 to 1000 nM

$$$$
>  <compound>
Cn1cc(-c2nc3cncc(C#N)c3nc2N2CCC(Oc3ccc(F)cc3F)CC2)cn1

>  <tested system>
GPR6 (Homo sapiens, UniProt P46095)

>  <data value>
1000 to 30000 nM

$$$$
>  <compound>
CS(=O)(=O)N1CCc2nc(N3CCC(Oc4ccc(F)cc4F)CC3)c(-c3cn[nH]c3)nc2C1

>  <tested system>
GPR6 (Homo sapiens, UniProt P46095)

>  <data value>
100 to 1000 nM

$$$$
